test system: UACC-62 melanoma; test: NCI tumour cell line growth inhibition, 48 h
Could you please report measured GI50 for the items listed next?

# input Param readout = GI50; param system = UACC-62 melanoma; param query = COc1ccc(/C=C(\C#N)n2nnc3cc(Cl)ccc32)cc1 ; response: value
# output 0.382 µM

# input Param readout = GI50; param system = UACC-62 melanoma; param query = Clc1ccc(N2COOC3(OOC2)C2CC4CC(C2)CC3C4)cc1 ; response: value
# output 1.01 µM

# input Param readout = GI50; param system = UACC-62 melanoma; param query = Cc1c(C(=O)CCl)c(=O)n(-c2ccccc2)n1C ; response: value
# output 4.78 µM

# input Param readout = GI50; param system = UACC-62 melanoma; param query = C[C@@H](Oc1cc(-c2cnn(C3CCNCC3)c2)cnc1N)c1c(Cl)ccc(F)c1Cl ; response: value
# output 1.54 µM

# input Param readout = GI50; param system = UACC-62 melanoma; param query = OCc1ccc(N(Cc2ccc(F)cc2)C2CCC2)cc1Cl ; response: value
# output 0.124 µM

# input Param readout = GI50; param system = UACC-62 melanoma; param query = c1ccc(Oc2c3ccccc3nc3ccccc23)cc1 ; response: value
# output 4.97 µM

# input Param readout = GI50; param system = UACC-62 melanoma; param query = O=C(Nc1cccc(NS(=O)(=O)c2ccc(F)cc2)c1)c1ccc(-c2ccccc2)cc1 ; response: value
# output 1.63 µM

# input Param readout = GI50; param system = UACC-62 melanoma; param query = O=P(Oc1ccccc1)(Oc1ccccc1)C(O)c1ccccc1 (configuration not stated) ; response: value
# output 44.8 µM

# input Param readout = GI50; param system = UACC-62 melanoma; param query = Cc1ccc(C)c(-n2c(-c3ccc(Br)cc3)csc2=NC(=O)c2ccccc2F)c1 ; response: value
# output > 100 µM

# input Param readout = GI50; param system = UACC-62 melanoma; param query = O=C(Nc1cccc(C2=NCCN2)c1)c1ccc(OCCCOc2ccc(C(=O)Nc3cccc(C4=NCCN4)c3)cc2)cc1 ; response: value
# output 1.41 µM

# input Param readout = GI50; param system = UACC-62 melanoma; param query = CCOC(=O)c1sc2ncn(Cc3cccc(Cl)c3)c(=O)c2c1C ; response: value
# output 13.4 µM

# input Param readout = GI50; param system = UACC-62 melanoma; param query = COc1cc(-c2cc(C(=O)Nc3nc4ccccc4s3)nc3cc(-c4ccccc4)nn23)cc(OC)c1OC ; response: value
# output 14.4 µM

----------
tested on: OVCAR-3 ovarian; test: NCI tumour cell line growth inhibition, 48 h
PROPERTY LABEL: TGI (µM)
The reply should be a number in µM, with the unit left off.

# input Which measured TGI value corresponds to COc1c(O)cc2oc3cc(O)c(CC=C(C)C)c(O)c3c(=O)c2c1C/C=C(\C)CCC=C(C)C ?
# output 9.71

# input Which measured TGI value corresponds to CC1=CC(=C(c2ccc(N)c(C)c2)c2ccc(N)c(C)c2)C=CC1=N ?
# output 16.7

# input Which measured TGI value corresponds to CCOC(=O)c1sc2ncn(Cc3cccc(Cl)c3)c(=O)c2c1C ?
# output 25.1

# input Which measured TGI value corresponds to Cc1c2ncccc2c(C)c2c1[nH]c1ccc(O)cc12 ?
# output 20

# input Which measured TGI value corresponds to COc1cccc(/C=C\c2cc(OC)c(OC)c(OC)c2)c1 ?
# output 79.1

# input Which measured TGI value corresponds to COc1ccc(-n2c(-c3ccc(NC(=O)CCCl)cc3)nnc2-c2cc(OC)c(OC)c(OC)c2)cc1 ?
# output 7.78

# input Which measured TGI value corresponds to COc1ccc(-c2nc3sccn3c2/C=C/C(=O)c2cc(OC)c(OC)c(OC)c2)cc1OC ?
# output 5.71

# input Which measured TGI value corresponds to Cc1ccc(C2=[N+]([O-])c3ccccc3C2=O)cc1 ?
# output 32.2

# input Which measured TGI value corresponds to Cc1c2[nH]c3ccc(Br)cc3c2c(C)c2[nH]ccc(=O)c12 ?
# output 32.2

# input Which measured TGI value corresponds to Clc1ccc(N2COOC3(OOC2)C2CC4CC(C2)CC3C4)cc1 ?
# output 39.1

# input Which measured TGI value corresponds to Nc1c(O)c2c(c(O)c1Cl)C(=O)C=CC2=O ?
# output 6.02

# input Which measured TGI value corresponds to COC(=O)c1ccc(-c2nc3cc(F)c(F)cc3nc2C#N)cc1 ?
# output 4.99

# input Which measured TGI value corresponds to CC(C)(C)[Si](C)(C)OC1[C@@H](O[Si](C)(C)C(C)(C)C)[C@@H](CNC(=O)NC(=O)NC(=O)CI)O[C@H]1n1cnc2c(NC(=O)Nc3ccccc3)ncnc21 (stereo partly specified) ?
# output 0.62

# input Which measured TGI value corresponds to COCC1N=C(c2ccc(OC)c(OCc3ccccc3)c2OC)O[C@H]1c1ccccc1 (stereo partly specified) ?
# output 55

# input Which measured TGI value corresponds to CC1=C2C(=CC(C)(CO)C2O)C(=O)C(C)(O)C12CC2 (stereo unspecified) ?
# output 0.019

# input Which measured TGI value corresponds to O=C1C(Cl)=C(Oc2ccccc2)C(=O)c2ccccc21 ?
# output 3.42

# input Which measured TGI value corresponds to O=C1C(c2ccc(Cl)cc2)=[N+]([O-])c2ccccc21 ?
# output 26.8

# input Which measured TGI value corresponds to CCNCCNc1cc(-c2ccc(Cl)cc2)c(C#N)c2nc3ccccc3n12 ?
# output 2.85

# input Which measured TGI value corresponds to O=[N+]([O-])/C(C(Cl)=C(Cl)Cl)=C(\Nc1cccc2cccnc12)Sc1ccccc1 ?
# output 28.3

All figures here come from PubChem BioAssay (NCI).
